test: viability loss with induced miR-34 in A549 – imaging, A549 dox-inducible miR-34, nuclei and caspase counts, primary screen (AID 1347080); conditions: A549 miR-34 inducible, Hoechst nuclei count, 48 h; measured here: total cells without miR-34 induction; also: test concentration not given here
Would you kindly list cell count for each of these compounds?
One number for each entry.

Here is how some compounds turned out for cell count.
{"compound": "FC(F)(F)c1ccc(/C=C/c2cc(Cl)cc(Cl)c2)cc1", "cell count": 5570}
{"compound": "O=P(O)(O)OC1[C@@H](O)[C@H](O)C(O)[C@H](O)[C@@H]1O (stereo not given in full)", "cell count": 6010}
{"compound": "COC1=C2C[C@@H](C)C[C@H](OC)[C@H](O)[C@@H](C)/C=C(\\C)[C@H](OC(N)=O)[C@@H](OC)/C=C\\C=C(/C)C(=O)NC(=CC1=O)C2=O", "cell count": 1470}
{"compound": "CCCCCC/C=C\\CCCCCCCCCCOC(C)=O", "cell count": 5900}
{"compound": "CCCCC[C@H](O)/C=C/[C@@H]1[C@H](CCCCCCC(=O)O)[C@@H](O)C[C@H]1O", "cell count": 6530}

# batch: return cell count for each of the 7 compounds below
1. CCCCC[C@H](O)/C=C/[C@H]1C2CC(CO2)[C@@H]1CCCCCCC(=O)O (stereo not given in full)
2. C#C[C@]1(O)CC[C@H]2[C@@H]3CCC4=CC(=O)CCC4[C@H]3CC[C@@]21CC (stereo not given in full)
3. COC(=O)C1=C(C)NC(C)=C([N+](=O)[O-])[C@H]1c1ccccc1C(F)(F)F
4. N#CCNC(=O)c1ccc(-c2ccnc(Nc3ccc(N4CCOCC4)cc3)n2)cc1
5. CCCS(=O)(=O)Nc1ccc(F)c(C(=O)c2c[nH]c3ncc(Cl)cc23)c1F
6. Cc1ccc(NC(=O)C(C)C)cc1C1CCN(Cc2ccc(Oc3ccc(F)c(F)c3)cc2)CC1
7. CCCCCCCCCCCC(=O)c1nc2ncccc2o1

// result
1. 6210
2. 6330
3. 8550
4. 1230
5. 5520
6. 1290
7. 5460

# batch: return cell count for each of the 8 compounds below
1. CCCCCCCC/C=C\CCCCCCCCOCCOP(=O)([O-])OCC[N+](C)(C)C
2. CCCCCC/C=C/C=C\CCCCCCCC(=O)O
3. CCCCCCCCCCCCCCCCCCCC(=O)NCCO
4. CC(C)=CCC/C(C)=C/CC/C(C)=C/CC[C@]1(C)CCc2c(C)c(O)c(C)c(C)c2O1
5. C/C=C1/C(=O)C[C@H]2[C@@H]3CCC4=CC(=O)CC[C@]4(C)[C@H]3CC[C@]12C
6. CNC(=O)[C@H](Cc1c[nH]c2ccccc12)NC(=O)[C@@H](CC(=O)NO)CC(C)C
7. CCCCCCCC/C=C\CCCCCCCC(=O)N[C@@H](CO)C(=O)O
8. COC(=O)c1sccc1S(=O)(=O)Nc1ccc(Nc2ccccc2)cc1OC

// result
[5950, 5920, 6100, 5920, 7790, 4630, 5180, 7480]

The reported numbers originate from PubChem BioAssay.
